- ASSAY_DETAILS: Determination of Efflux-Ratio (ER) in Caco-2 cells
- EXPERIMENTAL_PARAMETERS: human, Caco-2, pH 7.4
TEST_READOUT: efflux ratio at 2 h, 1 μM

MOLECULE: Cn1ncc(-c2ccc(CNc3cc(-c4cnc5cc(N6CCC(CCO)C6)ccn45)ncn3)cc2)n1 (stereo not shown)
MEAS_VALUE: > 50

MOLECULE: Cn1cc(-c2ccc(CNc3cc(-c4cnc5cc(OCCC(C)(C)N)ccn45)ncn3)cc2)cn1
MEAS_VALUE: > 50

MOLECULE: CNC1CN(c2ccn3c(-c4cc(NCc5ccc(-c6cnn(C)c6)cc5)ncn4)cnc3c2)C1
MEAS_VALUE: < 15

MOLECULE: Cc1nc(-c2ccc(CNc3cc(-c4cnc5cc(OCCN6CCC(=O)N(C)CC6)ccn45)ncn3)cc2)co1
MEAS_VALUE: < 15

MOLECULE: CN1CC2(CN(CCOc3ccn4c(-c5cc(NCc6ccc(-c7cnn(C)c7)cc6)ncn5)cnc4c3)C2)OC1=O
MEAS_VALUE: > 50

MOLECULE: Cn1cc(-c2ccc(CNc3cc(-c4cnc5cc(OCCN6CCC(F)(F)C6)ccn45)ncn3)cc2)cn1
MEAS_VALUE: < 15

MOLECULE: Cn1cc(-c2ccc(CNc3cc(-c4cnc5cc(N6CCC7(COC7)C6)ccn45)ncn3)cc2)cn1
MEAS_VALUE: < 15

MOLECULE: Cn1ncc(-c2ccc(CNc3cc(-c4cnc5cc(OCCCN6CCN(C7COC7)CC6)ccn45)ncn3)cc2)n1
MEAS_VALUE: < 15

MOLECULE: c1ccn2c(-c3cc(NCc4ccc(-n5ccnc5)cc4)ncn3)cnc2c1
MEAS_VALUE: < 15

MOLECULE: Cn1cc(-c2ccc(CNc3cc(-c4cnc5cc(OCCN6Cc7ccncc7C6)ccn45)ncn3)cc2)cn1
MEAS_VALUE: < 15

MOLECULE: COc1ccn2c(-c3cc(NCc4ccc(-c5cocn5)cc4)ncn3)cnc2c1
MEAS_VALUE: < 15

MOLECULE: Cn1cc(-c2ccc(CNc3cc(-c4cnc5cc(OCCN6CCCC6)ccn45)ncn3)cc2)cn1
MEAS_VALUE: < 15

MOLECULE: F[C@@H]1CCN(c2ccc(CNc3cc(-c4cnc5ccccn45)ncn3)cn2)C1
MEAS_VALUE: < 15

MOLECULE: Cn1ncc(-c2ccc(CNc3cc(-c4cnc5cc(OCCCN6CCC6)ccn45)ncn3)cc2)n1
MEAS_VALUE: < 15

MOLECULE: Cn1cc(-c2ccc(CNc3cc(-c4cnc5cc(OCCN6CCn7cnnc7C6)ccn45)ncn3)cc2)cn1
MEAS_VALUE: > 50

MOLECULE: COc1ccn2c(-c3cc(NCc4ccc(-c5cnn(C)c5)s4)ncn3)cnc2c1
MEAS_VALUE: < 15
